Origin of the recorded values: patent US4357331A

Target or system Proteus morganii: recorded MIC listed per item.
Write the number in µg/mL without appending the unit.

Req: I would be grateful if you could share the reported MIC for COC1(NC(=O)CSCCC(N)C(=O)O)C(=O)N2C(C(=O)[O-])=C(C[n+]3ccc(C(N)=O)cc3)CSC21 (centres unmarked) .
Resp: 12.5

Req: I am curious: what MIC value has been reported for CO[C@@]1(NC(=O)Cc2cccs2)C(=O)N2C(C(=O)O)=C(COC(N)=O)CS[C@@H]21 [Cefoxitin, cefoxitin, reference compound] ?
Resp: 6.25

Req: Would you kindly share the measured MIC for COC1(NC(=O)CSCCNC(N)=O)C(=O)N2C(C(=O)O)=C(CSc3nnnn3C)CSC21 (centres unmarked) ?
Resp: 3.13

Req: Name the reported MIC value associated with the compound COC1(NC(=O)CSCCC(N)C(=O)O)C(=O)N2C(C(=O)O)=C(CSc3nnnn3C)CSC21 (centres unmarked)
Resp: 3.13

Req: Which MIC is reported for this compound? COC1(NC(=O)CSCCN)C(=O)N2C(C(=O)O)=C(CSc3nnnn3C)CSC21 (centres unmarked)
Resp: 6.25
